- Protocol: Cytotoxicity against human red blood cells assessed as hemolysis after 30 mins
- Type: cell-based
- Settings: erythrocyte, 0.5 h
Non-standard residues stand in square brackets, D forms with d. Residues, ends and D or L forms follow the SMILES beside them. Orn = NCCC[C@H](N)C(=O)O
Observable: Activity

{"Compound": "CC(C)C[C@@H]1NC(=O)[C@H](CCCN)NC(=O)[C@H](C(C)C)NC(=O)[C@@H]2CCCN2C(=O)[C@@H](Cc2ccccc2)NC(=O)[C@H](CC(C)C)NC(=O)[C@H](CCCN)NC(=O)[C@H](C(C)C)NC(=O)[C@@H]2CCCN2C(=O)[C@@H](Cc2ccccc2)NC1=O [GRAMICIDIN S] (cyclo(L[dF]PV[Orn]L[dF]PV[Orn]))", "Result": "Dose-dependent effect"}
{"Compound": "CC(C)C[C@@H]1NC(=O)[C@H](CCCN)NC(=O)[C@H](C(C)C)NC(=O)[C@@H](CC(C)C)NC(=O)[C@@H]2CCCN2C(=O)[C@@H](Cc2ccccc2)NC(=O)[C@H](CC(C)C)NC(=O)[C@H](CCCN)NC(=O)[C@H](C(C)C)NC(=O)[C@@H](CC(C)C)NC(=O)[C@@H]2CCCN2C(=O)[C@@H](Cc2ccccc2)NC1=O", "Result": "Dose-dependent effect"}
{"Compound": "CC(C)C[C@@H]1NC(=O)[C@H](CCCN)NC(=O)[C@H](C(C)C)NC(=O)[C@@H](CCC(=O)O)NC(=O)[C@@H]2CCCN2C(=O)[C@@H](Cc2ccccc2)NC(=O)[C@H](CC(C)C)NC(=O)[C@H](CCCN)NC(=O)[C@H](C(C)C)NC(=O)[C@@H](CCC(=O)O)NC(=O)[C@@H]2CCCN2C(=O)[C@@H](Cc2ccccc2)NC1=O", "Result": "Dose-dependent effect"}

---

- Tested on: Staphylococcus epidermidis
- Protocol: Antibiotic activity against Staphylococcus epidermidis NBRC 12933 by microplate dilution assay
- Format: functional

{"Compound": "CC(C)C[C@@H]1NC(=O)[C@H](CCCN)NC(=O)[C@H](C(C)C)NC(=O)[C@@H](CCCN)NC(=O)[C@@H]2CCCN2C(=O)[C@@H](Cc2ccccc2)NC(=O)[C@H](CC(C)C)NC(=O)[C@H](CCCN)NC(=O)[C@H](C(C)C)NC(=O)[C@@H](CCCN)NC(=O)[C@@H]2CCCN2C(=O)[C@@H](Cc2ccccc2)NC1=O", "Comparator": "=", "MIC [µg/mL]": 6.25}
{"Compound": "CC(C)C[C@@H]1NC(=O)[C@H](CCCN)NC(=O)[C@H](C(C)C)NC(=O)[C@@H](CC(C)C)NC(=O)[C@@H]2CCCN2C(=O)[C@@H](Cc2ccccc2)NC(=O)[C@H](CC(C)C)NC(=O)[C@H](CCCN)NC(=O)[C@H](C(C)C)NC(=O)[C@@H](CC(C)C)NC(=O)[C@@H]2CCCN2C(=O)[C@@H](Cc2ccccc2)NC1=O", "Comparator": "=", "MIC [µg/mL]": 12.5}
{"Compound": "CC(C)C[C@@H]1NC(=O)[C@H](CCCN)NC(=O)[C@H](C(C)C)NC(=O)[C@@H](CO)NC(=O)[C@@H]2CCCN2C(=O)[C@@H](Cc2ccccc2)NC(=O)[C@H](CC(C)C)NC(=O)[C@H](CCCN)NC(=O)[C@H](C(C)C)NC(=O)[C@@H](CO)NC(=O)[C@@H]2CCCN2C(=O)[C@@H](Cc2ccccc2)NC1=O", "Comparator": ">", "MIC [µg/mL]": 100}
{"Compound": "CC(C)C[C@@H]1NC(=O)[C@H](CCCN)NC(=O)[C@H](C(C)C)NC(=O)[C@@H](Cc2ccccc2)NC(=O)[C@@H]2CCCN2C(=O)[C@@H](Cc2ccccc2)NC(=O)[C@H](CC(C)C)NC(=O)[C@H](CCCN)NC(=O)[C@H](C(C)C)NC(=O)[C@@H](Cc2ccccc2)NC(=O)[C@@H]2CCCN2C(=O)[C@@H](Cc2ccccc2)NC1=O", "Comparator": "=", "MIC [µg/mL]": 12.5}
{"Compound": "CC(C)C[C@@H]1NC(=O)[C@H](CCCN)NC(=O)[C@H](C(C)C)NC(=O)[C@@H](Cc2ccc(O)cc2)NC(=O)[C@@H]2CCCN2C(=O)[C@@H](Cc2ccccc2)NC(=O)[C@H](CC(C)C)NC(=O)[C@H](CCCN)NC(=O)[C@H](C(C)C)NC(=O)[C@@H](Cc2ccc(O)cc2)NC(=O)[C@@H]2CCCN2C(=O)[C@@H](Cc2ccccc2)NC1=O [GRATISIN]", "Comparator": "=", "MIC [µg/mL]": 12.5}
{"Compound": "CCC[C@H]1NC(=O)[C@@H]2CCCN2C(=O)[C@@H](Cc2ccccc2)NC(=O)[C@H](CC(C)C)NC(=O)[C@H](CCCN)NC(=O)[C@H](C(C)C)NC(=O)[C@@H](CCC)NC(=O)[C@@H]2CCCN2C(=O)[C@@H](Cc2ccccc2)NC(=O)[C@H](CC(C)C)NC(=O)[C@H](CCCN)NC(=O)[C@H](C(C)C)NC1=O", "Comparator": "=", "MIC [µg/mL]": 25}

---

- Protocol: Cytotoxicity against human red blood cells assessed as hemolysis after 30 mins
- Format: cell-based
- Settings: erythrocyte, 0.5 h
Observable: Activity

{"Cpd smiles": "CC(C)C[C@@H]1NC(=O)[C@H](CCCN)NC(=O)[C@H](C(C)C)NC(=O)CNC(=O)[C@@H]2CCCN2C(=O)[C@@H](Cc2ccccc2)NC(=O)[C@H](CC(C)C)NC(=O)[C@H](CCCN)NC(=O)[C@H](C(C)C)NC(=O)CNC(=O)[C@@H]2CCCN2C(=O)[C@@H](Cc2ccccc2)NC1=O", "Observable": "Activity", "Result": "Dose-dependent effect"}
{"Cpd smiles": "CC(C)C[C@@H]1NC(=O)[C@H](CCCN)NC(=O)[C@H](C(C)C)NC(=O)[C@@H](CCC(N)=O)NC(=O)[C@@H]2CCCN2C(=O)[C@@H](Cc2ccccc2)NC(=O)[C@H](CC(C)C)NC(=O)[C@H](CCCN)NC(=O)[C@H](C(C)C)NC(=O)[C@@H](CCC(N)=O)NC(=O)[C@@H]2CCCN2C(=O)[C@@H](Cc2ccccc2)NC1=O", "Observable": "Activity", "Result": "Dose-dependent effect"}
{"Cpd smiles": "CC(C)C[C@@H]1NC(=O)[C@H](CCCN)NC(=O)[C@H](C(C)C)NC(=O)[C@@H](CO)NC(=O)[C@@H]2CCCN2C(=O)[C@@H](Cc2ccccc2)NC(=O)[C@H](CC(C)C)NC(=O)[C@H](CCCN)NC(=O)[C@H](C(C)C)NC(=O)[C@@H](CO)NC(=O)[C@@H]2CCCN2C(=O)[C@@H](Cc2ccccc2)NC1=O", "Observable": "Activity", "Result": "Dose-dependent effect"}

---

- Protocol: Cytotoxicity against human red blood cells assessed as hemolysis after 30 mins
- Format: cell-based
- Settings: erythrocyte, 0.5 h
Non-standard residues stand in square brackets, D forms with d. Residues, ends and D or L forms follow the SMILES beside them. Orn = NCCC[C@H](N)C(=O)O

{"Molecule": "CC(C)C[C@@H]1NC(=O)[C@H](CCCN)NC(=O)[C@H](C(C)C)NC(=O)[C@@H](C)NC(=O)[C@@H]2CCCN2C(=O)[C@@H](Cc2ccccc2)NC(=O)[C@H](CC(C)C)NC(=O)[C@H](CCCN)NC(=O)[C@H](C(C)C)NC(=O)[C@@H](C)NC(=O)[C@@H]2CCCN2C(=O)[C@@H](Cc2ccccc2)NC1=O (cyclo(L[dF]P[dA]V[Orn]L[dF]P[dA]V[Orn]))", "Activity": "Dose-dependent effect"}
{"Molecule": "CC(C)C[C@@H]1NC(=O)[C@H](CCCN)NC(=O)[C@H](C(C)C)NC(=O)[C@@H](CCCN)NC(=O)[C@@H]2CCCN2C(=O)[C@@H](Cc2ccccc2)NC(=O)[C@H](CC(C)C)NC(=O)[C@H](CCCN)NC(=O)[C@H](C(C)C)NC(=O)[C@@H](CCCN)NC(=O)[C@@H]2CCCN2C(=O)[C@@H](Cc2ccccc2)NC1=O", "Activity": "Dose-dependent effect"}

---

- Tested on: Staphylococcus epidermidis
- Protocol: Antibiotic activity against Staphylococcus epidermidis NBRC 12933 by microplate dilution assay
- Type: functional
Non-standard residues stand in square brackets, D forms with d. Residues, ends and D or L forms follow the SMILES beside them. Orn = NCCC[C@H](N)C(=O)O
MIC listing for selected molecules.

{"Molecule": "CC(C)C[C@@H]1NC(=O)[C@H](CCCN)NC(=O)[C@H](C(C)C)NC(=O)[C@@H](C)NC(=O)[C@@H]2CCCN2C(=O)[C@@H](Cc2ccccc2)NC(=O)[C@H](CC(C)C)NC(=O)[C@H](CCCN)NC(=O)[C@H](C(C)C)NC(=O)[C@@H](C)NC(=O)[C@@H]2CCCN2C(=O)[C@@H](Cc2ccccc2)NC1=O (cyclo(L[dF]P[dA]V[Orn]L[dF]P[dA]V[Orn]))", "MIC, µg/mL": 25}
{"Molecule": "CC(C)C[C@@H]1NC(=O)[C@H](CCCN)NC(=O)[C@H](C(C)C)NC(=O)[C@@H]([C@H](C)O)NC(=O)[C@@H]2CCCN2C(=O)[C@@H](Cc2ccccc2)NC(=O)[C@H](CC(C)C)NC(=O)[C@H](CCCN)NC(=O)[C@H](C(C)C)NC(=O)[C@@H]([C@H](C)O)NC(=O)[C@@H]2CCCN2C(=O)[C@@H](Cc2ccccc2)NC1=O", "MIC, µg/mL": 100}
{"Molecule": "CC(C)C[C@@H]1NC(=O)[C@H](CCCN)NC(=O)[C@H](C(C)C)NC(=O)[C@@H](CCCCN)NC(=O)[C@@H]2CCCN2C(=O)[C@@H](Cc2ccccc2)NC(=O)[C@H](CC(C)C)NC(=O)[C@H](CCCN)NC(=O)[C@H](C(C)C)NC(=O)[C@@H](CCCCN)NC(=O)[C@@H]2CCCN2C(=O)[C@@H](Cc2ccccc2)NC1=O", "MIC, µg/mL": 6.25}
